meta.source: paper PMC4156298

Substrate: Cc1cc(=O)oc2cc(NC(=O)[C@@H](N)CCCNC(=N)N)ccc12
Experiment: fluorescence of released amc, Hill equation fit
Format: biochemical, Pyrococcus horikoshii
Conditions: 50 mM sodium phosphate pH 7.5, 358 K, 60 min, aminopeptidase, 85.0 °C

# protein, Km / µM
rows = [
    ("recombinant PH1704 protease from Pyrococcus horikoshii OT3 (enzyme, UniProt O59413 1-166, looked up, PH1704 protease, Pyrococcus horikoshii OT3, gene amplified from genomic DNA with primers at the start and at the stop codon, cloned NdeI/BamHI into pET-15b; The tag is known from detection with an anti-His tag antibody; also called WT; source: E. coli BL21 (DE3), purified (heat incubation at 80°C, Sephacryl S-200); copies: 12) MKVLFLTANEFEDVELIYPYHRLKEEGHEVYIASFERGTITGKHGYSVKVDLTFDKVNPEEFDALVLPGGRAPERVRLNEKAVSIARKMFSEGKPVASICHGPQILISAGVLRGRKGTSYPGIKDDMINAGVEWVDAEVVVDGNWVSSRVPADLYAWMREFVKLLK", 12),
]
